# Test system: Enterococcus faecalis
# Assay notes: Antibacterial activity against vancomycin-resistant Enterococcus faecalis clinical isolates after 20 hrs by twofold serial broth dilution method
# Format: functional
Collected MIC values appear next to each entry.
The reply should be a number in µM, with the unit left off.

Check out these entries, answers already filled in.
{"Compound": "C=C/C(C)=C/[C@@]1(C)SC(=O)C(C)=C1O [THIOLACTOMYCIN]", "Result units": "µM", "MIC": 128}
{"Compound": "O=C(CCc1ccc(O)cc1)c1c(O)cc(O)cc1O [PHLORETIN]", "Result units": "µM", "MIC": 128}

Next compound, please.
*Q* Under Enterococcus faecalis: report MIC of O=c1c(O)c(-c2ccccc2)oc2ccc(O)cc12 .
*A* 256
